# System: U251 CNS
# test-description: NCI tumour cell line growth inhibition, 48 h
Listed below: TGI values for each entry.
property-name: TGI (µM)

[
  {
    "compound": "O=[As](O)(O)c1cc(N=Nc2ccc(-c3ccc(N=Nc4cc([As](=O)(O)O)c(O)cc4O)cc3)cc2)c(O)cc1O",
    "property-name": "TGI",
    "comparison-symbol": ">",
    "observed-value": 100
  },
  {
    "compound": "CC(=O)NC(CCCCNC(=O)OCc1ccccc1)C(=O)NCc1ccccc1 (stereo unspecified)",
    "property-name": "TGI",
    "comparison-symbol": ">",
    "observed-value": 100
  },
  {
    "compound": "COc1ccc(/C=C/c2cc(OC)c(OC)c(OC)c2)cc1NC(=O)/C=C/c1ccc(F)cc1",
    "property-name": "TGI",
    "comparison-symbol": ">",
    "observed-value": 100
  },
  {
    "compound": "COc1cc(/C=C2/SC(c3ccccc3)N(c3cccc([N+](=O)[O-])c3)C2=O)cc(OC)c1OC (stereo unspecified)",
    "property-name": "TGI",
    "comparison-symbol": ">",
    "observed-value": 100
  },
  {
    "compound": "CCOc1ccc(/C=C/C(=O)c2ccccc2)cc1",
    "property-name": "TGI",
    "comparison-symbol": "=",
    "observed-value": 20.7
  },
  {
    "compound": "CCN(CC)CCCNc1ccc2nnn3c4ccc(O)cc4c(=O)c1c23",
    "property-name": "TGI",
    "comparison-symbol": "=",
    "observed-value": 7.61
  },
  {
    "compound": "CSc1nncc(-c2cc3c(c(SC)n2)CCC3)n1",
    "property-name": "TGI",
    "comparison-symbol": ">",
    "observed-value": 100
  },
  {
    "compound": "COP1(=O)CC2C(Cl)(Cl)C2(C)C1 (stereo unspecified)",
    "property-name": "TGI",
    "comparison-symbol": ">",
    "observed-value": 100
  },
  {
    "compound": "COc1ccc(NC(=O)C2C(=O)N(c3ccc(OC)cc3)C(=O)/C2=N/O)cc1 (stereo unspecified)",
    "property-name": "TGI",
    "comparison-symbol": "=",
    "observed-value": 42.9
  },
  {
    "compound": "CCCCCCCCCCCCCCCCCCOCC(O)COP(=O)(O)OCC1OC(n2cc(F)c(=O)[nH]c2=O)CC1O (stereo unspecified)",
    "property-name": "TGI",
    "comparison-symbol": "=",
    "observed-value": 22.4
  },
  {
    "compound": "CCOC(=O)C(C)(C)Oc1ccc2c(=O)cc(-c3ccc(Cl)cc3)oc2c1",
    "property-name": "TGI",
    "comparison-symbol": ">",
    "observed-value": 100
  },
  {
    "compound": "N#Cc1c2c(c(N3CCOCC3)n3c1nc1ccccc13)CCCC2",
    "property-name": "TGI",
    "comparison-symbol": "=",
    "observed-value": 28.3
  },
  {
    "compound": "Cc1[nH]c(-c2ccccc2)c(-c2ccc(Cl)cc2)c1C(=O)ONC(=O)c1ccccc1",
    "property-name": "TGI",
    "comparison-symbol": "=",
    "observed-value": 3.6
  },
  {
    "compound": "O=C(O)C1CCc2ccc3ccccc3c2C1c1cccc2ccccc12 (stereo unspecified)",
    "property-name": "TGI",
    "comparison-symbol": "=",
    "observed-value": 33.8
  },
  {
    "compound": "O=C1OS2(OCc3cccc4cccc2c34)c2ccccc21 (stereo unspecified)",
    "property-name": "TGI",
    "comparison-symbol": ">",
    "observed-value": 100
  },
  {
    "compound": "CCN(CC)CCn1c2c3ccccc3ccc2c2oc(=O)c3ccccc3c21",
    "property-name": "TGI",
    "comparison-symbol": ">",
    "observed-value": 100
  },
  {
    "compound": "Oc1ccc(N=Nc2ccc(Cl)cc2)cc1",
    "property-name": "TGI",
    "comparison-symbol": "=",
    "observed-value": 29.7
  },
  {
    "compound": "CCOC(=O)C(C(=O)Cc1ccccc1)c1ccccc1 (stereo unspecified)",
    "property-name": "TGI",
    "comparison-symbol": ">",
    "observed-value": 100
  },
  {
    "compound": "COc1cc2nc(-c3ccc(C(F)(F)F)cc3)cc(OCCCN3CCOCC3)c2cc1OC",
    "property-name": "TGI",
    "comparison-symbol": "=",
    "observed-value": 14.3
  },
  {
    "compound": "CC1=C2C(O)C(C(C)CO)C(O)CC2(C)C(O)CC1 (stereo unspecified)",
    "property-name": "TGI",
    "comparison-symbol": ">",
    "observed-value": 100
  },
  {
    "compound": "CC1(C)C=CC[C@]2(C)[C@H]3CC[C@@H]4[C@H]5[C@H](C(=O)/C=C/c6cccnc6)CC[C@]5(CO)CC[C@@]4(C)[C@]3(C)CC[C@@H]12",
    "property-name": "TGI",
    "comparison-symbol": "=",
    "observed-value": 2.65
  }
]
